PROTOCOL_NOTES: Oral dosage absorbability: urinary excretion rate after oral administration, rat
Assay type: in vivo
RECORDED_CONDITIONS: urine, dose: 50 mg/kg
RECORDED_ENDPOINT: dose excreted (%)
Give the quantity in %, number only.

What value of measured dose excreted is listed for CO/N=C(\C(=O)NC1C(=O)N2C(C(=O)OCOC(=O)C(C)(C)C)=C(COC(N)=O)CS[C@H]12)c1cscn1 (stereo partly shown) [Example 5] ?
30

----------
PROTOCOL_NOTES: Oral dosage absorbability: urinary excretion rate after oral administration, mouse
Format: in vivo
RECORDED_CONDITIONS: urine, dose: 50 mg/kg
RECORDED_ENDPOINT: dose excreted
Your reply should be a number followed by the unit it is expressed in.

What value of measured dose excreted is listed for CO/N=C(\C(=O)NC1C(=O)N2C(C(=O)OCOC(=O)C(C)(C)C)=C(COC(N)=O)CS[C@H]12)c1cscn1 (stereo partly shown) ?
64%
